# study_system: T1, IL10 receptor (UniProt Q13651 22-578; Q08334 20-325, limits assumed)
# T1 sequence (looked up) 1: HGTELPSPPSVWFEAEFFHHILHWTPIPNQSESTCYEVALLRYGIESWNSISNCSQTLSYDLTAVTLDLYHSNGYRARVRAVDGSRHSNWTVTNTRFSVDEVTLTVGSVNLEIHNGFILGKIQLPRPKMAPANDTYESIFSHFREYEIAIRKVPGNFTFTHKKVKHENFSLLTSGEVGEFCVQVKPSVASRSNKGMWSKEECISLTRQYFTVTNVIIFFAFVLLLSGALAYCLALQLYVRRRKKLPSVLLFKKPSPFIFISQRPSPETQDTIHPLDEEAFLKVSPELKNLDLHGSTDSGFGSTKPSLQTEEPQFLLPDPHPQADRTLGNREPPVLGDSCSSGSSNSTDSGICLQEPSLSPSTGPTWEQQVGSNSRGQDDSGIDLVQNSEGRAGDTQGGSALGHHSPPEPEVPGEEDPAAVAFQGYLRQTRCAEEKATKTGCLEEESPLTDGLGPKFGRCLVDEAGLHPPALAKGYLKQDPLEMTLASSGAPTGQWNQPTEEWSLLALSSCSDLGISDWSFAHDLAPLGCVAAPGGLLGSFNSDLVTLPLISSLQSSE
# T1 sequence (looked up) 2: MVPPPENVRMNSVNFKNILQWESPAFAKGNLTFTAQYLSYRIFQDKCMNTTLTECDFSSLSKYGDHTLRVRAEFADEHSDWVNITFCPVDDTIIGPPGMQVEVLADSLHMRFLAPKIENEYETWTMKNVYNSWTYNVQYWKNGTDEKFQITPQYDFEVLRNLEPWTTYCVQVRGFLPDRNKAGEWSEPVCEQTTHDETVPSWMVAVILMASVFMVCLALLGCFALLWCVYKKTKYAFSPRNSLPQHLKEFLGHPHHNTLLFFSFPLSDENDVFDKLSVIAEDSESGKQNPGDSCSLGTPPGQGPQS
# assay_comment: cell-based or functional assay
Recorded HEK-Blue IL10 EC50 (STAT-3 mediated SEAP expression) by entry
Please reply with the bare figure in nM and do not write the unit itself.

{"columns": ["binder", "number"],
 "data": [
  ["IL10M(S) (ligand) KSKAVEQVKNAFNKLQEKGIYKAMSEFDIFINYIEAYMTMKIRNGSGGGGSGTSPGQGTQSENSCTHFPGNLPNMLRDLRDAFSRVKTFFQMKDQLDNLLLKESLLEDFKGYLGCQALSEMIQFYLEEVMPQAENQDPDIKAHVNSLGENLKTLRLRLRRCHRFLPCEN", 0.149],
  ["IL10M(J) (ligand) SPGQGTQSENSCTHFPGNLPNMLRDLRDAFSRVKTFFQMKDQLDNLLLKESLLEDFKGYLGCQALSEMIQFYLEEVMPQAENQDPDIKAHVNSLGENLKTLRLRLRRCHRFLPCENGGGSGGKSKAVEQVKNAFNKLQEKGIYKAMSEFDIFINYIEAYMTMKIRN", 0.0634]
]}

Consider the record given below.
State, in one line, measured HEK-Blue IL10 EC50 (STAT-3 mediated SEAP expression) of IL4-10M(J) (ligand) HKCDITLQEIIKTLNSLTEQKTLCTELTVTDIFAASKNTTEKETFCRAATVLRQFYSHHEKDTRCLGATAQQFHRHKQLIRFLKRLDRNLWGLAGLNSCPVKEANQSTLENFLERLKTIMREKYSKCSSGSGGGGSGTSPGQGTQSENSCTHFPGNLPNMLRDLRDAFSRVKTFFQMKDQLDNLLLKESLLEDFKGYLGCQALSEMIQFYLEEVMPQAENQDPDIKAHVNSLGENLKTLRLRLRRCHRFLPCENGGGSGGKSKAVEQVKNAFNKLQEKGIYKAMSEFDIFINYIEAYMTMKIRN
0.0778

Where do these numbers come from? They come from patent US20260132178A1.
